- EXPERIMENT NOTES: gradient 5% acetonitrile 3 min, to 50% in 2 min, to 85% in 15 min, held 3 min, 100 µL/min
- CONDITION SET: column: Zorbax Extend-C18 2.1 x 50 mm; eluents: water / acetonitrile, 0.1% formic acid
PROPERTY NAME: RP-LC retention time (s)

Reference set (3 entries):
1) Cc1cccc2nnc(N3CCN(C(=O)c4cc5c(s4)CCCC5)CC3)n12; 605
2) CCOc1ccc(-c2nc(-c3ccc4ncn(CC)c4c3)no2)cc1; 829
3) O=C(NC1CCCCC1)C1CCN(c2cnn(Cc3ccccc3)c(=O)c2)CC1; 793

[I] O=C(c1cnccn1)N1CCCC1c1nc(-c2cccc(C(F)(F)F)c2)no1 (configuration not stated)
[II] c1ccc(-c2n[nH]c(C3CCCN(Cc4ccoc4)C3)n2)cc1 (configuration not stated)
INPUT: Problem: Given the entries I and II , determine which has the lower reported RP-LC retention time. # answer = label of selected item
OUTPUT: II

[I] O=C(C1=CN(c2ccc(Cl)cc2)c2ccccc2S1(=O)=O)N1CCCC1
[II] CCN1CCN(c2ncc3c(n2)CC(c2cc(OC)c(OC)c(OC)c2)CC3=O)CC1 (configuration not stated)
INPUT: Looking only at measured RP-LC retention time, which entry is lower, I or II ? Your answer should be the label of the entry you select.
OUTPUT: II
(II: 564 s, I: 827 s)

[P] O=C1CC(c2nc(-c3ccc(Cl)cc3)no2)CN1c1ccc(F)cc1 (configuration not stated)
[Q] CN1CCN(c2nc(C3=C(c4c[nH]c5ccccc45)C(=O)NC3=O)c3ccccc3n2)CC1
INPUT: RP-LC retention time comparison. Which is larger, P or Q ? When you have decided, please share the label of that item.
OUTPUT: P
(P: 1000 s, Q: 674 s)

---

- EXPERIMENT NOTES: gradient 5% acetonitrile 3 min, to 50% in 2 min, to 85% in 15 min, held 3 min, 100 µL/min
- CONDITION SET: column: Zorbax Extend-C18 2.1 x 50 mm; eluents: water / acetonitrile, 0.1% formic acid
PROPERTY NAME: RP-LC retention time (s)

1) CCOc1ccc(NC(=O)Nc2nccn(-c3ccccc3)c2=O)cc1; 913
2) c1csc(Cc2nc(-c3ccc4c(c3)ncn4CCN3CCCCC3)no2)c1; 646
3) CC(C)CN1C(=O)c2cccn2CC1C(=O)NCCN1CCOCC1 (stereo not drawn); 568
4) CCCC1c2nccn2CCCN1C(=O)c1cc(C2CC2)[nH]n1 (stereo not drawn); 596
5) O=C(c1cc2c(s1)CCC(C(=O)N1CCOCC1)C2)N1CCCCC1 (stereo not drawn); 701
6) CN1c2ccc(F)cc2C(=O)NC12CCN(C(=O)c1ccc(Cl)cc1)CC2; 785
7) CSc1ncccc1C(=O)NCc1ccc2c(c1)ncn2C(C)C; 585
8) O=c1c2ccccc2c(-c2nc(-c3cccnc3)no2)cn1-c1ccccc1; 1010
9) CCC1CN2C=Nc3oc(C)c(C(=O)Nc4ccc(C)c(F)c4)c3C2=N1 (stereo not drawn); 689
10) CCN1C(=O)c2cccnc2Sc2cc(NC(=O)C3CCCC3)ccc21; 816
11) COc1ccc(-c2nnc(-c3ccccc3)o2)cc1S(=O)(=O)NCC(=O)O; 703
12) CCOc1ccccc1NC(=O)NCCc1nc2cccnc2n1C1CCCC1; 782
13) CC(=O)Nc1ccc(C2(C(=O)N3CCCCCC3)CCC2)cc1; 769

---

- EXPERIMENT NOTES: gradient 5% acetonitrile 3 min, to 50% in 2 min, to 85% in 15 min, held 3 min, 100 µL/min
- CONDITION SET: column: Zorbax Extend-C18 2.1 x 50 mm; eluents: water / acetonitrile, 0.1% formic acid
PROPERTY NAME: RP-LC retention time (s)

[P] Cc1cc(C)c2c(N3CCSCC3)nc(C(=O)NCCN3CCCCC3)nc2n1
[Q] Cc1cccc(NC(=O)C2CCCN(S(=O)(=O)c3c[nH]c(C(=O)N4CCCCCC4)c3)C2)c1 (stereo not drawn)
INPUT: Two entries are listed, P and Q . Which one carries the higher RP-LC retention time? Please identify the chosen entry by its label.
OUTPUT: Q
(Q: 922 s, P: 559 s)

[1] COC(=O)c1cnc2nc(C)ccc2c1Nc1ccc(Cl)cc1
[2] O=C(O)c1ccc2cc(-c3ccc(O)c(C4C5CC6CC(C5)CC4C6)c3)ccc2c1 (stereo not drawn)
INPUT: Just curious, which one has the larger RP-LC retention time reading, 1 or 2 ? Selection: enter the item's label.
OUTPUT: 2

[a] CC(NC(=O)C1CCc2nc(N3CCOCC3)ncc2C1)c1ccco1 (stereo not drawn)
[b] CC(C)Cn1cc(CCNC(=O)Nc2ccc(Br)cc2F)c2cccnc21
INPUT: Returns: the argument ( a or b ) having the larger RP-LC retention time. Selection: enter the item's label.
OUTPUT: b
(b: 975 s, a: 630 s)

---

- EXPERIMENT NOTES: gradient 5% acetonitrile 3 min, to 50% in 2 min, to 85% in 15 min, held 3 min, 100 µL/min
- CONDITION SET: column: Zorbax Extend-C18 2.1 x 50 mm; eluents: water / acetonitrile, 0.1% formic acid
PROPERTY NAME: RP-LC retention time (s)

Guide cases for RP-LC retention time, answers given:
1. O=C(NCC1CCCCC1)c1sc2ncccc2c1-n1cccc1; 1190
2. Cc1cc(=O)n(Cc2ccc(F)cc2)c(N2CCSCC2)n1; 917
3. CCN(CC)C(=O)Cn1c(C(F)(F)F)nc2cc3c(cc21)OCCO3; 811
4. Cc1cccc(-c2ncccc2CNS(=O)(=O)c2cc(F)ccc2F)c1; 738
5. CCn1cc(C(=O)Nc2ccc(Cl)cc2)c2cccnc21; 931
6. O=c1[nH]cc(S(=O)(=O)N2CCCC2)c(=O)[nH]1; 568
7. COCCNC(=O)CN1C(=O)C2CCCCN2c2ccc(C(=O)N3CCCC3)cc21 (stereo not given); 653
8. CN1C(=O)c2cc(C(=O)NCCc3ccc(Cl)cc3)nn2CC1(C)C(=O)NCc1ccccc1 (stereo not given); 823
9. COc1cc(OC)c(C(=O)CCCN2CCCC2)c(OC)c1; 666
10. Cc1[nH]c(C)c(S(=O)(=O)N2CCC(C(=O)NC3CCCC3)CC2)c1C(=O)N1CCCC1; 659

[P] COc1ccc(N2COc3ccc4c(c3C2)O/C(=C\c2ccco2)C4=O)cc1
[Q] CCCN1C(=O)c2cc(S(=O)(=O)NC(C)c3ccccc3)ccc2Oc2cccnc21 (stereo not given)
INPUT: Out of P and Q , name the one with the higher RP-LC retention time. Output the label that corresponds to your choice.
OUTPUT: Q

[A] COc1ccc(NS(=O)(=O)c2ccc(-c3c(C)noc3C)cc2)cc1OC
[B] CCOc1nc2ccccc2nc1N1CCCC(C(=O)N2CCN(c3ccc(F)cc3)CC2)C1 (stereo not given)
INPUT: Pick one: A or B . Which has the bigger RP-LC retention time number? Selection: enter the item's label.
OUTPUT: B

---

- EXPERIMENT NOTES: gradient 5% acetonitrile 3 min, to 50% in 2 min, to 85% in 15 min, held 3 min, 100 µL/min
- CONDITION SET: column: Zorbax Extend-C18 2.1 x 50 mm; eluents: water / acetonitrile, 0.1% formic acid
PROPERTY NAME: RP-LC retention time (s)

1. COc1cccc(CNC(=O)C2CCCN(c3ncnc4c3oc3ccccc34)C2)c1 (configuration not stated); 734
2. CCCCOc1ccc(C(=O)NC2(c3nc(C)no3)CCCCC2)cc1; 1080
3. CCOc1ccc(S(=O)(=O)N2CCCC(C(=O)N3CCOCC3)C2)cc1 (configuration not stated); 777
4. O=C(Nc1ccccc1C(F)(F)F)NC1CCN(c2ccccc2)C1=O (configuration not stated); 841
5. O=C(CCc1c(-c2ccc(Br)cc2)nc2ccccn12)NCCCc1ccccc1; 722
6. COc1ccc(S(=O)(=O)N2CCCC(C(N)=O)C2)cc1Cl (configuration not stated); 701
7. CCc1nc2cc(N3CCC(C(=O)NCc4ccccc4F)CC3)cnc2nc1CC; 840
8. Fc1ccccc1-c1nc2ccn(Cc3ccc(-c4ccc(C(F)(F)F)cc4C(F)(F)F)nn3)cc-2n1; 849
9. COCc1nncn1C1CCN(C(=O)c2cc(F)cc(F)c2)CC1; 628
10. CCN(CC)c1cc(CNC(=O)Nc2cc(Cl)ccc2OC)ccn1; 690
11. COc1cccc(-c2noc(COC(=O)C3=CN(C)S(=O)(=O)N=C3C)n2)c1; 926
12. NS(=O)(=O)c1ccc(CCNC(=O)c2nc(CCS(=O)(=O)c3ccccc3)no2)cc1; 692
13. CCOc1ccccc1-c1noc(Cn2c(=O)n(Cc3ccccc3)c(=O)c3sccc32)n1; 1090
14. O=C(CCCc1nc2cccnc2n1Cc1ccc(F)cc1)N1CCCC1; 707
15. Cc1nn(-c2nc(-c3ccc(F)cc3)cs2)c(C)c1CC(=O)Nc1ccc(F)cc1; 1150
16. COc1cccc(NC(=O)C2CCN(Cc3cnn(-c4ccccc4)c3-n3cccc3)CC2)c1; 723
17. COc1ccc(-c2nnc(N3CCC(C(=O)NCc4cccs4)CC3)o2)cc1; 767
18. O=C(CN1CCN(Cc2ccc(F)cc2)C1=O)NCc1cc(F)cc(F)c1; 826
19. CS(=O)(=O)N1CCC(C(=O)Nc2ccc3cn[nH]c3c2)CC1; 588
20. O=C(NC1CCN(Cc2ccccc2)CC1)C1CCCN(c2ncc(-c3cccc(F)c3)cn2)C1 (configuration not stated); 753
21. COc1ccc(NC(=O)C2CCN(c3cnc4nccnc4c3)CC2)cc1Cl; 712
22. Cc1ccsc1C(=O)NC1(c2nc(-c3cnccn3)no2)CCCCC1; 806
